Parameter pIC50, tested on human GSK-3β (Homo sapiens, UniProt P49841), listed per item.
Sequence (P49841 whole entry): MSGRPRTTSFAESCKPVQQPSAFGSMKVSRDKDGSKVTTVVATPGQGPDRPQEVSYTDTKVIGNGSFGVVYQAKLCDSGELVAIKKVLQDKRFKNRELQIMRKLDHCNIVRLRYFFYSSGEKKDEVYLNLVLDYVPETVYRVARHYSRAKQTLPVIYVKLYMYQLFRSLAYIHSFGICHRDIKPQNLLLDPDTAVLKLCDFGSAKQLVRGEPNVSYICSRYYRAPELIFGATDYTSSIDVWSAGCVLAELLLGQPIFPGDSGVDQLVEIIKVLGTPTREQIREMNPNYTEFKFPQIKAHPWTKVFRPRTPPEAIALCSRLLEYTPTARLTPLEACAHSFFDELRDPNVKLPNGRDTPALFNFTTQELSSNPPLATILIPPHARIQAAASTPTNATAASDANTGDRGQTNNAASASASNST
pIC50: −log10 of the molar value.
Readout type: pIC50

Cn1cc(C2=C(c3cnc4ccccn34)C(=O)NC2=O)c2cc3c(cc21)OCO3	8.30
Cn1cc(C2=C(c3coc4ccccc34)C(=O)NC2=O)c2cc(Br)cnc21	8.30
